- protocol: Food interaction study: bioavailability of a single 30 mg oral dose of ulipristal acetate in fed and fasting states
- assay.context: female, human, plasma, oral, 30 mg, AUC0-∞, fed (high-fat breakfast); single 30 mg tablet; mean ± SD
property: AUC(0-inf) (ng·h/mL)

CC(=O)O[C@]1(C(C)=O)CC[C@H]2[C@@H]3CCC4=CC(=O)CCC4=C3[C@@H](c3ccc(N(C)C)cc3)C[C@@]21C [ulipristal acetate]; 608

* * *

- protocol: Food interaction study: bioavailability of a single 30 mg oral dose of ulipristal acetate in fed and fasting states
- assay.context: female, human, plasma, oral, 30 mg, AUC0-∞, fasted; single 30 mg tablet; mean ± SD
property: AUC(0-inf) (ng·h/mL)

CC(=O)O[C@]1(C(C)=O)CC[C@H]2[C@@H]3CCC4=CC(=O)CCC4=C3[C@@H](c3ccc(N(C)C)cc3)C[C@@]21C [ulipristal acetate]; 474

Reference source: patent US8426392B2
